- Run description: Clearance in mouse
- Assay type: ADME, organism-based
- Experimental context: in vivo
Outcome measure: clearance (mL/min/kg)

I. CC(C(=O)NCC(F)(F)C(F)(F)F)C(=O)N[C@@H]1C(=O)N(C)c2ccccc2-c2ccccc21 (mixture of isomers)
II. C[C@H](OC(=O)NCC(F)(F)C(F)(F)F)C(=O)N[C@@H]1C(=O)N(C)c2ccccc2-c2ccccc21
*Q* Please let me know which one, I or II , has a lower measured clearance value. Selection: enter the item's label.
*A* II

----------
- Experimental system: Gamma-secretase
- Run description: Inhibition of human gamma secretase in HEK293 cells by reporter gene assay
- Assay type: cell-based
Outcome measure: IC50 (nM)

Reference set, count: 3
CCOCCNC(=O)C(C)C(=O)NC1C(=O)N(C)c2ccccc2-c2ccccc21 (centres undefined) :: 3300
CC(C(=O)NC1CCc2ccccc21)C(=O)NC1C(=O)N(C)c2ccccc2-c2ccccc21 (centres undefined) :: 14000
C[C@H](OC(=O)Nc1ccccc1)C(=O)NC1C(=O)N(C)c2ccccc2-c2ccccc21 (some centres undefined) :: 1500

A. CC(C(=O)NCc1ccccc1)C(=O)NC1C(=O)N(C)c2ccccc2-c2ccccc21 (centres undefined)
B. C[C@H](OC(=O)NCC(F)(F)C(F)(F)F)C(=O)N[C@@H]1C(=O)N(C)c2ccccc2-c2ccccc21
C. CC(C(=O)NCc1cc(F)cc(F)c1)C(=O)N[C@@H]1C(=O)N(C)c2ccccc2-c2ccccc21 (mixture of isomers)
D. CC(C(=O)NCC(F)(F)F)C(=O)NC1C(=O)N(C)c2ccccc2-c2ccccc21 (centres undefined)
*Q* Output the entries ranked by IC50 from maximum down to minimum. Order the labels as requested and list them.
*A* A, D, C, B
(A: 75 nM, D: 42 nM, C: 8.8 nM, B: 1.7 nM)

P. C[C@@H](C(=O)NCc1cc(F)cc(F)c1)C(=O)N[C@@H]1C(=O)N(C)c2ccccc2-c2ccccc21
Q. CC(C(=O)NCc1cc(F)cc(F)c1)C(=O)NC1C(=O)N(C)c2ccccc2-c2ccccc21 (centres undefined)
*Q* Please let me know which one, P or Q , has a lower measured IC50 value. Selection: enter the item's label.
*A* P

a. CC(OC(=O)NCC(F)(F)C(F)(F)F)C(=O)N[C@@H]1C(=O)N(C)c2ccccc2-c2ccccc21 (some centres undefined)
b. CC(C(=O)NCCC(F)(F)F)C(=O)NC1C(=O)N(C)c2ccccc2-c2ccccc21 (centres undefined)
c. CC(C(=O)NCc1cc(F)cc(F)c1)C(=O)N[C@H]1C(=O)N(C)c2ccccc2-c2ccccc21 (mixture of isomers)
*Q* Ordering: ascending IC50. Order the labels as requested and list them.
*A* a, b, c
(a: 2 nM, b: 24 nM, c: 580 nM)

P. C[C@H](C(=O)NCc1cc(F)cc(F)c1)C(=O)N[C@@H]1C(=O)N(C)c2ccccc2-c2ccccc21
Q. CC(C(=O)NC(C)c1ccccc1)C(=O)NC1C(=O)N(C)c2ccccc2-c2ccccc21 (centres undefined)
R. CC(C(=O)NCC1CC1)C(=O)NC1C(=O)N(C)c2ccccc2-c2ccccc21 (centres undefined)
S. CC(C(=O)NCC(F)(F)C(F)(F)F)C(=O)N[C@@H]1C(=O)N(C)c2ccccc2-c2ccccc21 (mixture of isomers)
*Q* Output the entries ranked by IC50 from maximum down to minimum. Order the labels as requested and list them.
*A* Q, R, P, S
(Q: 6300 nM, R: 210 nM, P: 7.1 nM, S: 1.7 nM)
